# testSystem: human ether-a-go-go potassium channel (hERG) expressed in HEK293 cells (Homo sapiens, UniProt Q12809)
# Sequence (Q12809 whole entry): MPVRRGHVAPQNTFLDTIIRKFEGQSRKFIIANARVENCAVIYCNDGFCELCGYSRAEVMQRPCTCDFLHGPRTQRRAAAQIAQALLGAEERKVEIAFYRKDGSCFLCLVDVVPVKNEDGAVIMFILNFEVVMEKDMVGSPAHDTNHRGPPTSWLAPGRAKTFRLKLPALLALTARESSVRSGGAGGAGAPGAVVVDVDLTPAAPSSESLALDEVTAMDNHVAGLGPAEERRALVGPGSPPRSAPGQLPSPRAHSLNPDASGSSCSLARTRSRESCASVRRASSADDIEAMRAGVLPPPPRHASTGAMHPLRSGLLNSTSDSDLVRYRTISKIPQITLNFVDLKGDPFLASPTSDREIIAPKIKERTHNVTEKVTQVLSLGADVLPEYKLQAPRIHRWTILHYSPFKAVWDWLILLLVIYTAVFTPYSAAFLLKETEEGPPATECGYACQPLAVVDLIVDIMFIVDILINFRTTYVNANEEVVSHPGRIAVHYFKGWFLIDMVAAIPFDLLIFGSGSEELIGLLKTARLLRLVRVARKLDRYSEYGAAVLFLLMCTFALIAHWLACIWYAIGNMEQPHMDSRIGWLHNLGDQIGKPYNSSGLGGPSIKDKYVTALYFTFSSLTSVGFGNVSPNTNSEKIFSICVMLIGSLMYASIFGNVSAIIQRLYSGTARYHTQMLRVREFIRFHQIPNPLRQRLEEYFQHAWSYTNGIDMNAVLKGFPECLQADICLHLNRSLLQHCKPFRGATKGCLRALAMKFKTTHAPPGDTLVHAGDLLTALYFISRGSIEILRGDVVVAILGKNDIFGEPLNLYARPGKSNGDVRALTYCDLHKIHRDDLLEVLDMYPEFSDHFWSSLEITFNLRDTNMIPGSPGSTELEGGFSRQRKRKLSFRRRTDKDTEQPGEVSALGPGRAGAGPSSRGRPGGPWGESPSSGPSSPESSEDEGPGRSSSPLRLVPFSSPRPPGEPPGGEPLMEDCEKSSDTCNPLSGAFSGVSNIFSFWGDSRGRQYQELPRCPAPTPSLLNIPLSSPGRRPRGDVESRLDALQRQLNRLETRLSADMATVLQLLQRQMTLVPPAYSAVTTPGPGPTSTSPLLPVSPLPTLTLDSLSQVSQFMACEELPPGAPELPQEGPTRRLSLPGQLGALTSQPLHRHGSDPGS
pKi: −log10 of the molar value.
quantityName: pKi

For reference, reported pKi for O[C@H](COc1ccc2[nH]c(=S)[nH]c2c1)CN1CCN(c2ccc(Cl)cc2)CC1 stands at ~5.12

For reference, reported pKi for O=C1Cc2cc(OC[C@@H](O)CN3CCN(c4ccc(Cl)cc4)CC3)ccc2N1 stands at ~5.00

For reference, reported pKi for O[C@H](COc1ccc2[nH]ncc2c1)CN1CCN(c2ccc(Cl)cc2)CC1 stands at ~6.00

For reference, reported pKi for O=C1CCc2cc(OC[C@@H](O)CN3CCN(c4ccc(Cl)cc4)CC3)ccc2N1 stands at ~5.30

For reference, reported pKi for O=c1[nH]c2ccc(OC[C@@H](O)CN3CCN(c4ccc(Cl)cc4)CC3)cc2[nH]1 [drawing 781] stands at ~5.12

For reference, reported pKi for O=c1ccc2cc(OC[C@@H](O)CN3CCN(c4ccc(Cl)cc4)CC3)ccc2[nH]1 stands at ~5.12
